biological target: Dihydroorotate dehydrogenase (quinone), mitochondrial (Homo sapiens, UniProt Q02127); assay: Inhibition of human recombinant DHODH
Sequence (Q02127 whole entry): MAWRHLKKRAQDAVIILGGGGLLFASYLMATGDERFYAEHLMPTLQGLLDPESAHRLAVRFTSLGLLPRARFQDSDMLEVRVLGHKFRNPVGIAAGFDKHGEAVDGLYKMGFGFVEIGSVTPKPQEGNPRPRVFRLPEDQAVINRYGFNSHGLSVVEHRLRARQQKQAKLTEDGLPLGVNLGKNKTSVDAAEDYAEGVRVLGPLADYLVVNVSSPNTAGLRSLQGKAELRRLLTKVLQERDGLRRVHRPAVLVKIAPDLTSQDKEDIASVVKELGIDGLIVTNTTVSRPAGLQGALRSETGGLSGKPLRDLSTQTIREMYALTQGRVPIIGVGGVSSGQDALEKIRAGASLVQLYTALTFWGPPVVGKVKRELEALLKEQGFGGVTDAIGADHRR
Please respond with 1 when measured IC50 is strictly beneath 200 µM, and with -1 in all other cases.

CCOC(=O)/C(C#N)=C\Nc1ccc(-c2ccccc2)cc1: -1
CCOC(=O)C(=CNc1cccc(-c2ccccc2)c1)C(=O)OCC: 1
CCOC(=O)C(=CNc1ccc2[nH]cnc2c1)C(=O)OCC: -1
CCOC(=O)C(=CNc1ccc2[nH]ncc2c1)C(=O)OCC: 1
CCOC(=O)C(=CNc1ccc(-c2ccccc2)cc1)C(=O)OCC: -1
CCOC(=O)/C(C#N)=C\Nc1ccc2c(c1)c1ccccc1n2CC: -1

is_below(IC50, 200 µM) for `CCOC(=O)C(=CNc1ccccc1C)C(=O)OCC` ?
-1

is_below(IC50, 200 µM) for `CCOC(=O)C(=CNc1ccc(C)cc1)C(=O)OCC` ?
1

is_below(IC50, 200 µM) for `CCOC(=O)/C(C#N)=C\Nc1cccc(-c2ccccc2)c1` ?
-1

is_below(IC50, 200 µM) for `CCOC(=O)C(=CNc1ccc2sc3ccccc3c2c1)C(=O)OCC` ?
1

* * *

molecular target: Dihydroorotate dehydrogenase (Plasmodium falciparum, UniProt Q54A96); assay: Inhibition of recombinant Plasmodium falciparum DHODH
Sequence (Q54A96 whole entry): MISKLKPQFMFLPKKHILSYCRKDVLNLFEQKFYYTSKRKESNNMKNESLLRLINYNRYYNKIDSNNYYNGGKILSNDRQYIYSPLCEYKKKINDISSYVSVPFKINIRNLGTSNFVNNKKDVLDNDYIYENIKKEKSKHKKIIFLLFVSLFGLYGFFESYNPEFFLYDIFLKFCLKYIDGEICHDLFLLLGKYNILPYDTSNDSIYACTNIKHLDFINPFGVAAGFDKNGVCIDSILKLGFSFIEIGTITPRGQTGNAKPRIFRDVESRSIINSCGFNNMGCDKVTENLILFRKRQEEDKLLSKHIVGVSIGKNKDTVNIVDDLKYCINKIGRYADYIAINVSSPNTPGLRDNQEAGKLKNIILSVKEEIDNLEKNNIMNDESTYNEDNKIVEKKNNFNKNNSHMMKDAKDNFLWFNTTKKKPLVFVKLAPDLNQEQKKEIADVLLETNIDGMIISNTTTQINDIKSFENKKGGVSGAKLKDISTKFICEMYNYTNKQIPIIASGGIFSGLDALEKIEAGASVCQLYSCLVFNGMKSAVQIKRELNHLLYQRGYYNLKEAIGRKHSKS
measuredQuantity: Ki (µM)
Give just the numeric value; µM need not be written.

CCOC(=O)C(=CNc1ccc(C)cc1)C(=O)OCC: 4.6
CCOC(=O)C(=CNc1ccc2sc3ccccc3c2c1)C(=O)OCC: 0.02
CCOC(=O)/C(C#N)=C\Nc1ccc2c(c1)c1ccccc1n2CC: 0.05

Which Ki is reported for this molecule? `CCOC(=O)C(=CNc1cccc(-c2ccccc2)c1)C(=O)OCC`
10

Which Ki is reported for this molecule? `Cc1c(C(=O)Nc2cc(Cl)cc(Cl)c2)cccc1[N+](=O)[O-]`
0.03

Which Ki is reported for this molecule? `CCOC(=O)C(=CNc1ccc2[nH]ncc2c1)C(=O)OCC`
3.2

* * *

target: Dihydroorotate dehydrogenase (Plasmodium falciparum); experiment: Inhibition of recombinant Plasmodium falciparum DHODH
measuredQuantity: Ki (µM)
Give just the numeric value; µM need not be written.

In the examples that follow, each entry is paired with its recorded Ki.
Cc1cc(Br)ccc1NC(=O)c1ccc2ccccc2c1: 0.02
CCOC(=O)C(=CNc1ccccc1C)C(=O)OCC: 39.7

Next, consider the following molecule.
Which Ki is reported for this molecule? `CCOC(=O)C(=CNc1ccc2[nH]cnc2c1)C(=O)OCC`
40.2

* * *

molecular target: UniProtKB Q02127; assay: Inhibition of human recombinant DHODH
The reader will find reported Ki values listed item by item below.
Give just the numeric value; µM need not be written.

In the examples that follow, each entry is paired with its recorded Ki.
CCOC(=O)C(=CNc1ccc2sc3ccccc3c2c1)C(=O)OCC: 3.63
CCOC(=O)/C(C#N)=C\Nc1cccc(-c2ccccc2)c1: 0.027
CCOC(=O)C(=CNc1ccccc1C)C(=O)OCC: 35.9
Cc1c(C(=O)Nc2cc(Cl)cc(Cl)c2)cccc1[N+](=O)[O-]: 64.4
CCOC(=O)/C(C#N)=C\Nc1ccc2c(c1)c1ccccc1n2CC: 60.4

Which Ki is reported for this compound? `CCOC(=O)C(=CNc1ccc2[nH]ncc2c1)C(=O)OCC`
15.1

Which Ki is reported for this compound? `CCOC(=O)C(=CNc1ccc(C)cc1)C(=O)OCC`
17.9

Which Ki is reported for this compound? `Cc1cc(Br)ccc1NC(=O)c1ccc2ccccc2c1`
50.9

Which Ki is reported for this compound? `CCOC(=O)C(=CNc1cccc(-c2ccccc2)c1)C(=O)OCC`
12.8
